All values here come from PubChem BioAssay (NCATS).

Test system: 3D7
Test: qHTS profiling for inhibitors of Plasmodium falciparum proliferation (AID 504749); also: nearly all actives have a fitted effect of over 60% in size
Details: P. falciparum in erythrocytes, SYBR Green DNA, 72 h; series mostly up to 28.7 µM
Procedure: NIH National Institute of Allergy and Infectious Diseases [NIAID] NIH Chemical Genomics Center [NCGC] […] Because mature erythrocytes lack DNA, only Plasmodium-derived DNA is detected. NCGC Assay Protocol Summary: The SYBR Green viability assay was adapted from a method described previously (Plouffe et al., 2008). […] The following morning, fluorescence intensity at 485(14) nm excitation and 535(25) nm emission wavelengths was measured on an EnVision (Perkin Elmer) plate reader. […]
Results filed as inconclusive are left out. Active and inactive are the calls of the source. Calls follow the shape of the dose curve; as a rule, active = well fitted inhibition curve with a large enough effect; inconclusive = small, poorly fitted or top-dose-only effect; inactive = flat fitted curve, though single readings scatter.
Classes used: Yes = active, No = inactive

Compound	Group Label
CCOC(=O)c1ccccc1O	No
COc1cc2c3cc1Oc1cc(ccc1O)C[C@@H]1c4c(cc(OC)c(O)c4Oc4ccc(cc4)C[C@@H]3N(C)CC2)CC[N+]1(C)C	No
C=CCCCCCCCCC(=O)O	No
CN(C)c1ccc(C(=C2C=CC(=[N+](C)C)C=C2)c2ccccc2)cc1	Yes
Nc1ccc(O)c(C(=O)O)c1	No
C[S+](CC[C@H](N)C(=O)O)C[C@H]1O[C@@H](n2cnc3c(N)ncnc32)[C@H](O)[C@@H]1O (stereo partly specified)	No
